- Test system: A549 tumor cells
- ASSAY_COMMENT: Cell proliferation inhibition assay (MTT), A549
- Type: cell-based
- PROTOCOL_CONDITIONS: 48 hours
pIC50: −log10 of the molar value.
Label Criterion met when pIC50 is at or above 5; anything below gets Criterion not met.

Below, 5 molecules whose answers are already recorded.
MOLECULE | ASSIGNED_CATEGORY
O=C(Nc1ccc2cc(C(=O)NC3CC3)ccc2c1)c1ccc(F)cc1 [ABC-21] | Criterion not met
O=C(Nc1ccc2cc(C(=O)Nc3nccs3)ccc2c1)c1cccc(Cl)c1 [ABC-45] | Criterion met
O=C(Nc1ccc2cc(C(=O)Nc3nccs3)ccc2c1)c1ccc(Cl)c(Cl)c1 [ABC-46] | Criterion met
O=C(Nc1ccc2cc(C(=O)N3CCOCC3)ccc2c1)c1ccc(F)cc1 [ABC-11] | Criterion not met
CN1CCN(C(=O)c2ccc3cc(NC(=O)c4ccc(Cl)c(Cl)c4)ccc3c2)CC1 [ABC-42] | Criterion met

Could you please find out whether Cc1cccc(C(=O)Nc2ccc3cc(C(=O)Nc4nccs4)ccc3c2)c1 [ABC-32] has pIC50 that meets 5 or exceeds it? Criterion not met

Could you please find out whether O=C(Nc1ccc2cc(C(=O)NC3CC3)ccc2c1)c1cccc(Cl)c1 [ABC-43] has pIC50 that meets 5 or exceeds it? Criterion not met
